Source of measurements: patent US8841513B2

- target: GP of E. coli (Escherichia coli, UniProt P0AC86, E280D/L281V)
- Construct: His tag (pET-15b) (N); made in house; host or cells: E. coli BL21 (DE3) C43 transformed with pET15b-glgP (CECT 7071)
- Sequence (P0AC86 other isoform, or with tags, fused parts or gaps E280D/L281V): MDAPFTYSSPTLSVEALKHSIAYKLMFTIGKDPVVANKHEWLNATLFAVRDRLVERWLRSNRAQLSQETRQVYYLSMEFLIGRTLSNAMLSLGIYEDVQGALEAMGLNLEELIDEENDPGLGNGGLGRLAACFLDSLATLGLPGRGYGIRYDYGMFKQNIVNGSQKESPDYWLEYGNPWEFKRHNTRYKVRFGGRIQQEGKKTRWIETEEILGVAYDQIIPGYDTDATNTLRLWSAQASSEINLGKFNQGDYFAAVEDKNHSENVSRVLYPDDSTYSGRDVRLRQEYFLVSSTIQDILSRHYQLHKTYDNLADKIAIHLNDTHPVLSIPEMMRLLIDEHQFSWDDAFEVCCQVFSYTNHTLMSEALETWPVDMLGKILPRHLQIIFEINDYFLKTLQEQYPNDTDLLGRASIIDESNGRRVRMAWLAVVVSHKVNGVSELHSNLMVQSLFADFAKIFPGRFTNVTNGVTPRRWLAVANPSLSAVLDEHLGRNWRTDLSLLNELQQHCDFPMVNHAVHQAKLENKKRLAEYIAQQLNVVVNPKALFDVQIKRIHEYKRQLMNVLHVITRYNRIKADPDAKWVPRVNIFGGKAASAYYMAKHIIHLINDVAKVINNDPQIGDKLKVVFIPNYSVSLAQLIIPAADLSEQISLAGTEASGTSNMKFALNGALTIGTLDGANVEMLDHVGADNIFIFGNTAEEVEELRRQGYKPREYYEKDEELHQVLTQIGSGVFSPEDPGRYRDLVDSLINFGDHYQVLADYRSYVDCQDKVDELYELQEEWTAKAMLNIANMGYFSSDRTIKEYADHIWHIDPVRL
- Assay type: biochemical
- study conditions: effector 2 mM; GP activity, no effector = 100
# % control per record follows
Write the numeric value and append its unit.

Worked examples, 2 molecules total:
Asked: Give the reported % control for O=C(CO)[C@@H](O)[C@H](O)[C@H](O)COP(=O)(O)O [Fructose-6-phosphate] (system: GP of E. coli (Escherichia coli, UniProt P0AC86, E280D/L281V)).
Given back: 105%

Asked: Give the reported % control for Nc1ncnc2c1ncn2[C@@H]1O[C@H](COP(=O)(O)OP(=O)(O)O[C@H]2O[C@H](CO)[C@@H](O)[C@H](O)[C@H]2O)[C@@H](O)[C@H]1O [ADPG, ADPglucose] (system: GP of E. coli (Escherichia coli, UniProt P0AC86, E280D/L281V)).
Given back: 104%

Field: next molecule
Asked: Give the reported % control for Nc1ncnc2c1ncn2[C@@H]1O[C@H](COP(=O)(O)OP(=O)(O)O)[C@@H](O)[C@H]1O [ADP] (system: GP of E. coli (Escherichia coli, UniProt P0AC86, E280D/L281V)).
Given back: 88%

----------
- target: GP of E. coli (Escherichia coli, UniProt P0AC86, E280D/L281V)
- Construct: His tag (pET-15b) (N); made in house; host or cells: E. coli BL21 (DE3) C43 transformed with pET15b-glgP (CECT 7071)
- procedure summary: Substrate specificity of GP of E. coli (products by HPLC with amperometric detection)
- Format: biochemical
- study conditions: glucan 5 mM glucose, 30 mM Pi, 3 U recombinant GP, 3 hours, 37° C.
measured metric: Products: G1P

Asked: Query (compound): OC[C@H]1O[C@H](O[C@H]2[C@H](O)[C@@H](O)[C@@H](O[C@H]3[C@H](O)[C@@H](O)[C@@H](O[C@H]4[C@H](O)[C@@H](O)C(O)O[C@@H]4CO)O[C@@H]3CO)O[C@@H]2CO)[C@H](O)[C@@H](O)[C@@H]1O (stereo partly shown) [Maltotetraose] ; field requested: Products: G1P
Given back: b.d.l.

Asked: Query (compound): OC[C@H]1O[C@H](O[C@H]2[C@H](O)[C@@H](O)[C@@H](O[C@H]3[C@H](O)[C@@H](O)[C@@H](O[C@H]4[C@H](O)[C@@H](O)[C@@H](O[C@H]5[C@H](O)[C@@H](O)[C@@H](O[C@H]6[C@H](O)[C@@H](O)[C@@H](O[C@H]7[C@H](O)[C@@H](O)C(O)O[C@@H]7CO)O[C@@H]6CO)O[C@@H]5CO)O[C@@H]4CO)O[C@@H]3CO)O[C@@H]2CO)[C@H](O)[C@@H](O)[C@@H]1O (stereo partly shown) [Maltoheptose] ; field requested: Products: G1P
Given back: 2.1 mM

Asked: Query (compound): OC[C@H]1O[C@H](O[C@H]2[C@H](O)[C@@H](O)C(O)O[C@@H]2CO)[C@H](O)[C@@H](O)[C@@H]1O (mixture of isomers) [Maltose] ; field requested: Products: G1P
Given back: b.d.l.

Asked: Query (compound): OC[C@H]1O[C@H](O[C@H]2[C@H](O)[C@@H](O)[C@@H](O[C@H]3[C@H](O)[C@@H](O)[C@@H](O[C@H]4[C@H](O)[C@@H](O)[C@@H](O[C@H]5[C@H](O)[C@@H](O)[C@@H](O[C@H]6[C@H](O)[C@@H](O)C(O)O[C@@H]6CO)O[C@@H]5CO)O[C@@H]4CO)O[C@@H]3CO)O[C@@H]2CO)[C@H](O)[C@@H](O)[C@@H]1O (stereo partly shown) [Maltohexose] ; field requested: Products: G1P
Given back: 1.7 mM
